# pIC50 per entry
# Tested on: IL-2
# METHOD SUMMARY: PHA-IL2 (cell activation and cytokine analysis)
# Format: cell-based
# CONDITION INFO: 50% inhibition concentration class
pIC50: −log10 of the molar value.

O=C(COc1cccnc1-c1ccc(F)nc1)N1CCC(CCc2ccc3c(c2)OCCCO3)CC1 | 5.00 to 6.00
O=C(COc1ccccc1-c1ccc2[nH]ncc2c1)N1CCC(CCc2ccc3c(c2)OCO3)CC1 | > 6.00

What value of pIC50 has been reported for the following molecule? Cc1ccc(F)c(-c2ccccc2OCC(=O)N2CCC(CCc3ccc4c(c3)OCO4)CC2)c1
> 6.00

What value of pIC50 has been reported for the following molecule? O=C(COc1ccccc1-c1cccc(C(F)(F)F)c1)N1CCC(CCc2ccc3c(c2)OCO3)CC1
> 6.00

Data origin: patent US10899747B2
